Entries with their measured GI50, system HCT-15:

Field: example entries. Status: answers known.
COc1cc(COC(=O)NC(Cc2cccs2)C(=O)O)c([N+](=O)[O-])cc1OC (stereo unspecified) | > 100 µM
O=C(O)CCNc1ncc2c(n1)-c1ccccc1OC2 | > 100 µM
COc1cc2c3c(cc(Cl)nc3c1OC)C(O)(CC(C)=O)C(=O)N2 (stereo unspecified) | > 43.4 µM
COc1c(C)c2nc3ccccc3nc2c2c(O)ccnc12 | > 100 µM

Prompt line: Which measured GI50 value corresponds to C1OCC2S[C@@H]3COCO[C@@H]3C2O1 (stereo partly specified) ?
Response line: > 100 µM

Prompt line: Also CO/C(N)=C(C#N)/N=C/c1cccnc1 ?
Response line: > 100 µM

Prompt line: Also COc1ccc(NC(=S)C#N)cc1 ?
Response line: > 100 µM

Prompt line: Also Oc1cc(O)c2c(c1)OC(c1ccc(O)c(O)c1)C(O)C2c1c(O)cc(O)c2c1OC(c1ccc(O)c(O)c1)C(O)C2 (stereo unspecified) ?
Response line: > 100 µM

Prompt line: Also CC(C)N(C(=O)C12C3C4C1C1C2C3C41C#N)C(C)C (stereo unspecified) ?
Response line: > 72.8 µM

Prompt line: Also COC1CC(OS(=O)(=O)c2ccc(C)cc2)C(OC(=O)c2ccccc2)C(C)O1 (stereo unspecified) ?
Response line: > 10 µM

Prompt line: Also C=CCN1C(=O)/C(=C/c2ccc(C)cc2)NC1=S ?
Response line: > 100 µM

* * *

- Tested on: HCC 2998
- Experiment Summary: NCI tumour cell line growth inhibition, 48 h
Activity calls are given as the source filed them. No stated cut-off is given here; in the data, active = GI50 up to about 1.1 µM and inactive = higher.
Assay Readout: GI50

Field: example entries. Status: answers known.
C/C=C/C=N/N(c1nnc(-c2ccccc2)c(-c2ccccc2)n1)S(=O)(=O)c1ccc(C)cc1 | 17 µM (inactive)
CCCCCCCCCC/C=C/C=O | > 100 µM (inactive)
O=C(O)CN1CCNCCN(CC(=O)O)CCNCC1 | > 82.2 µM (inactive)

Prompt line: Which measured GI50 value corresponds to CC(=O)NC1(C)CCC(C(C)(C)NC(C)=O)CC1 (stereo unspecified) ?
Response line: > 100 µM (inactive)

Prompt line: Also C=CC(=O)NC(=N)NC#N ?
Response line: 182 µM (inactive)

Prompt line: Also COc1cc2oc(-c3ccc(O)cc3)cc(=O)c2c(O)c1C1OC(CO)C(O)C(O)C1O (stereo unspecified) ?
Response line: > 100 µM (inactive)

* * *

- Tested on: SK-MEL-5
- Experiment Summary: NCI tumour cell line growth inhibition, 48 h
The source made the active and inactive calls. No stated cut-off is given here; in the data, active = GI50 up to about 1.1 µM and inactive = higher.
Respond only with the outcome that fits, drawn from active, inactive

Look over these answered cases.
C/C=C(/C)C(=O)O[C@H]1C(C)=C[C@]23C(=O)[C@@H](C=C(COC(C)=O)[C@@H](O)[C@]12O)[C@H]1[C@@H](C[C@H]3C)[C@@]1(C)OC(=O)/C(C)=C\C | active
CCCCCC/C=C\CCCCCCCCCC1=CC(=O)C=C(OC)C1=O [IRISQUINONE A] | inactive
Cc1cc(=O)oc2c(CNC(CC(C)C)C(=O)O)c(O)ccc12 (stereo not given) | inactive
CC1(C)OC2C(O)C(CO)OC2(C(F)F)O1 (stereo not given) | inactive

Prompt line: Query: recorded result category for Cc1noc(C)c1CCCOC1COc2ccccc2OCCOCCOc2ccccc2OC1 in this test
Response line: inactive
